biological target: human CB2 receptor (Homo sapiens (Human)); assay: CB2 receptor binding assay ([3H]CP-55,940 displacement, HEK-293 membranes); settings: membranes of HEK-293 cells with human recombinant CB2R, [3H]CP-55,940; class symbols; read-out: CB2 IC50
Sequence (P34972 whole entry): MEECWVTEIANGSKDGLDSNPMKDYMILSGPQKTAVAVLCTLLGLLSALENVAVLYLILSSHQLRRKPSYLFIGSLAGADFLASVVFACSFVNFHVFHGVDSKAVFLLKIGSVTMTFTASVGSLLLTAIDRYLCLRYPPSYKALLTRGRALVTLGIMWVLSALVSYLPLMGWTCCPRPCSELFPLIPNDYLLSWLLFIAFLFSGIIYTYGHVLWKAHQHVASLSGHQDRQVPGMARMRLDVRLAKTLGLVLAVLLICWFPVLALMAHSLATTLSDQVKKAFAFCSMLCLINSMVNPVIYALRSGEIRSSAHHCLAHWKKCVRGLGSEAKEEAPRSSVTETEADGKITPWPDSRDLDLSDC

{"columns": ["compound", "IC50"],
 "data": [
  ["CC(NC(=O)c1c(O)c2cc(-c3ccc(F)cc3)cnc2n(CCN2CCOCC2)c1=O)c1ccc(F)cc1 (stereo not shown)", "< 100 nM"],
  ["O=C(NC12CC(C1)C2)c1c(O)c2cccnc2n(CCN2CCOCC2)c1=O", "> 1000 nM"],
  ["O=C(NC12CC(C1)C2)c1c(O)c2cc(-c3ccc(F)cc3)cnc2n(Cc2ccc(F)cn2)c1=O", "> 1000 nM"],
  ["CC1CCC(NC(=O)c2cc3cc(-c4ncccn4)cnc3n(CCN3CCOCC3)c2=O)CC1 (stereo not shown)", "< 100 nM"]
]}

---

Each record here notes measured pIC50.
target: human CB2 receptor (Homo sapiens (Human)); experiment: CB2 receptor binding assay ([3H]CP-55,940 displacement, HEK-293 membranes); settings: membranes of HEK-293 cells with human recombinant CB2R, [3H]CP-55,940; class symbols; read-out: CB2 IC50
pIC50: −log10 of the molar value.

{"columns": ["compound", "pIC50"],
 "data": [
  ["Cc1c(C(=O)NC2CCC(C)CC2)c(=O)n(CCN2CCOCC2)c2ncc(Br)cc12 (stereo not shown) [Compound 72]", "> 7.00"],
  ["COc1ccc(-c2cnc3c(c2)c(OC(C)C)c(C(=O)NC24CC(C2)C4)c(=O)n3CCN2CCOCC2)cc1 [Compound 180]", "< 6.00"],
  ["CC(C)Oc1ccc(-c2cnc3c(c2)cc(C(=O)NC2CC4(CCC4)C2)c(=O)n3Cc2ccc(F)cc2)cc1 [Compound 66]", "< 6.00"],
  ["CC(NC(=O)c1cc2cc(-c3ccc(OC(F)F)cc3)cnc2n(CCN2CCOCC2)c1=O)c1ccc(F)cc1 (stereo not shown) [Compound 53]", "> 7.00"]
]}

---

biological target: human recombinant CB1R (Homo sapiens (Human)); experiment: CB1 receptor binding assay ([3H]CP-55,940 displacement, HEK-293 membranes); settings: membranes of HEK-293 cells with human recombinant CB1R, [3H]CP-55,940; read-out: CB1 IC50
Sequence (P21554 whole entry): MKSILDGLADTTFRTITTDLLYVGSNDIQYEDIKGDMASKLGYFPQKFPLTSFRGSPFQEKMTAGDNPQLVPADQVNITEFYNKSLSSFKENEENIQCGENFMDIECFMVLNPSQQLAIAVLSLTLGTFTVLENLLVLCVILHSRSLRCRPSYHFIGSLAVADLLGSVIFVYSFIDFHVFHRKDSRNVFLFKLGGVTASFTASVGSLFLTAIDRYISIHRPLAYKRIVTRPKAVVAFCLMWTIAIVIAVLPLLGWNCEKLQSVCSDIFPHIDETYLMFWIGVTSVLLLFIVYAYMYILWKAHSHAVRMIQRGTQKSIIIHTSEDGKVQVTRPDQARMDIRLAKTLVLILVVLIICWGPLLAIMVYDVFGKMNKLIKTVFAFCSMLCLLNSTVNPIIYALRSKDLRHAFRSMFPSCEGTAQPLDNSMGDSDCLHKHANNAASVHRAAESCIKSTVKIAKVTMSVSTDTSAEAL

{"columns": ["compound", "output_unit", "operator_symbol", "IC50"],
 "data": [
  ["O=C(NC12CCC(CC1)CC2)c1c(O)c2cc(-c3ccc(F)cc3)cnc2n(CCN2CCOCC2)c1=O [Compound 116]", "nM", "=", 1480],
  ["O=C(NC12CCC(C1)C2)c1c(O)c2cc(-c3ccc(F)cc3)cnc2n(CCN2CCOCC2)c1=O [Compound 115]", "nM", "=", 552],
  ["C[C@H](NC(=O)c1cc2cc(Br)cnc2n(Cc2ccc(F)cc2)c1=O)c1ccc(F)cc1 [Compound 90]", "nM", "=", 348],
  ["O=C(NC1CC2(CCC2)C1)c1cc2cc(C3CC3)cnc2n(Cc2ccc(F)cc2)c1=O [Compound 93]", "nM", ">", 10000],
  ["C[C@@H](NC(=O)c1cc2cc(-c3ccc(OC(F)F)cn3)cnc2n(CCN2CCOCC2)c1=O)c1ccc(F)cc1 [Compound 48]", "nM", ">", 10000],
  ["O=C(NC1CC2(CCC2)C1)c1cc2cc(-c3ccccn3)cnc2n(CCN2CCOCC2)c1=O [Compound 34]", "nM", "=", 184],
  ["O=C(NC1CC2(CCC2)C1)c1cc2cc(-c3ccc(F)cc3)cnc2n(CCN2CCOCC2)c1=O [Compound 32]", "nM", "=", 39],
  ["C[C@@H](NC(=O)c1cc2cc(C3CC3)cnc2n(Cc2ccc(F)cc2)c1=O)c1ccc(F)cc1 [Compound 94]", "nM", "=", 3260],
  ["O=C(NC1CC2(CCC2)C1)c1cc2cc(-c3ccncn3)cnc2n(CCN2CCOCC2)c1=O [Compound 35]", "nM", "=", 358],
  ["CC1CCC(NC(=O)c2c(O)c3cc(-c4ccc(OC(F)F)cc4)cnc3n(CCN3CCOCC3)c2=O)CC1 (stereo not drawn) [Compound 15]", "nM", ">", 10000],
  ["O=C(NC12CC(C1)C2)c1c(O)c2cc(-c3ccc(F)cc3)cnc2n(CCN2CCOCC2)c1=O [Compound 8]", "nM", ">", 10000],
  ["CC(C)c1cnc2c(c1)cc(C(=O)N[C@H](C)c1ccc(C#N)cc1)c(=O)n2Cc1ccc(F)cc1 [Compound 85]", "nM", "=", 605],
  ["CC(NC(=O)c1cc2cc(-c3ccc(C#N)cn3)cnc2n(CCN2CCOCC2)c1=O)c1ccc(F)cc1 (stereo not drawn) [Compound 58]", "nM", ">", 10000],
  ["COc1ccc(-c2ccc3c(c2)cc(C(=O)NC2CCC(C)(C)CC2)c(=O)n3CCN2CCOCC2)cc1 [Compound 39]", "nM", ">", 10000],
  ["COc1ccc(-c2cnc3c(c2)cc(C(=O)NC2CCC(F)(F)CC2)c(=O)n3CCN2CCOCC2)cc1 [Compound 27]", "nM", ">", 10000]
]}
